Source: the DeepSol protein solubility set

Assay: soluble on expression in E. coli; label from the status in PepcDB or PDB records
Value Kind: soluble on expression in E. coli

Chain Sequence	Recorded Value
SLKSLNHISLLCRSVEESISFYQNVLGFLPIRRPDSFDFDGAWLFGHGIGIHLLQSPEPEKLLKKTEINPKDNHISFQCESMEAVEKKLKEMEIEYVRAVVEEGGIQVDQLFFHDPDAFMIEICNCDSLPVIPLAGEMARSCSRLNIRQLVQPTQIHEG	soluble
MAHHHHHHQTQTPSQLLQSFTTRTTDYNQLINSVGINAITPQQIQRIEKLSGKAPHHYLSRGVFLAEKSLDKFLDDVEAKKPTFIFIQKYPQKEVALEEYITLEFARYLQDAFNIQVIIQILDDIKVLNREATINEASKMSNDLMKYILAFGFNEDKTFIYTDYQYFGKMYRTISLVEKATAYNVVQPFFNFEYSDNIGKLASPSIMTASMFSQSYSHFFSSPARCLVLDSIKNVQFHSIIDQIATTLNFIQPTVLFHKMVPLLSGVTKFDIPSDHNSILLSDNAKQVERKINKLAFSGGRNTTEEHKKLGGQCDIDVSFQLLNIFSSDNAQVKDVEEKYSKGELLSGELKKIVSASMKDFIVAYDAKKKPITTAYLKAYISKTKF	soluble
